study.system: SpiCA3 (Stylophora pistillata)
Sequence (A0A1B0Y357 entry or part of it): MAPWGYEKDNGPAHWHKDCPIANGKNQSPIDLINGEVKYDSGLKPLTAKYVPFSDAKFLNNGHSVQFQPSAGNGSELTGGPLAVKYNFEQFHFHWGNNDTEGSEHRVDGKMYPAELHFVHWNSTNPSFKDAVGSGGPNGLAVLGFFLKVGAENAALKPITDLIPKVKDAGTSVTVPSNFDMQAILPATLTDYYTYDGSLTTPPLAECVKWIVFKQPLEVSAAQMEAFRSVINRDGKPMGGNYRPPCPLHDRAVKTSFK
Type: biochemical
condition.details: authors' grading of the KI values of Table 1
value.type: SpiCA3 inhibition, in words

[[record]]
compound = "Nc1ccc(S(=O)(=O)NCCc2ccc(S(N)(=O)=O)cc2)cc1 [Compound 24]"
result = "well inhibited"

[[record]]
compound = "Nc1ccc(S(N)(=O)=O)cc1 [Compound 2]"
result = "worst inhibitors"

[[record]]
compound = "Nc1ccc(S(=O)(=O)NCc2ccc(S(N)(=O)=O)cc2)cc1 [Compound 23]"
result = "well inhibited"

[[record]]
compound = "NS(=O)(=O)Cc1noc2ccccc12 [ZNS, zonisamide]"
result = "worst inhibitors"

[[record]]
compound = "Nc1ccc(S(N)(=O)=O)cc1F [Compound 7]"
result = "worst inhibitors"

[[record]]
compound = "NS(=O)(=O)c1ccc(CCO)cc1 [Compound 17]"
result = "well inhibited"

[[record]]
compound = "Nc1ccc(S(N)(=O)=O)cc1Cl [Compound 8]"
result = "worst inhibitors"

[[record]]
compound = "O=C1NS(=O)(=O)c2ccccc21 [SAC, Saccharin]"
result = "worst inhibitors"

[[record]]
compound = "Nc1ccc(S(=O)(=O)Nc2nnc(S(N)(=O)=O)s2)cc1 [Compound 20]"
result = "well inhibited"

[[record]]
compound = "NCCc1ccc(S(N)(=O)=O)cc1 [Compound 6]"
result = "worst inhibitors"

[[record]]
compound = "NS(=O)(=O)c1ccc(S(=O)(=O)Nc2cccc3c(Cl)c[nH]c23)cc1 [IND, indisulam]"
result = "well inhibited"

[[record]]
compound = "NS(=O)(=O)c1ccc(CCNS(=O)(=O)c2ccc([N+](=O)[O-])cc2CO)cc1 [Compound 21]"
result = "well inhibited"

[[record]]
compound = "NCc1ccc(S(N)(=O)=O)cc1 [Compound 5]"
result = "worst inhibitors"

[[record]]
compound = "CCN1CCCC1CNC(=O)c1cc(S(N)(=O)=O)ccc1OC (centres unmarked) [SLP, Sulpiride]"
result = "worst inhibitors"

[[record]]
compound = "CC1(C)O[C@@H]2[C@@H](CO[C@@]3(COS(N)(=O)=O)OC(C)(C)O[C@@H]23)O1 [TPM, topiramate]"
result = "worst inhibitors"

[[record]]
compound = "Nc1nccc(Nc2ccc(S(N)(=O)=O)cc2)n1 [Compound 19]"
result = "well inhibited"

